Hello, the source for this data is ChEMBL document CHEMBL1156748, in case you need it.

# assay-name: Metabolic stability in mouse microsomes assessed as half life
# Assay type: ADME, Microsome
readout-type: half-life

smiles_entry=CN1CCN(c2ccc(NC(=O)Nc3ccc(-c4nc(N5CC6CCC(C5)O6)c5cnn(CC(F)(F)F)c5n4)cc3)cc2)CC1 result="> 30 min"

----------
# assay-name: Antiproliferative activity against PTEN deficient human MDA468 cells after 3 days by MTS assay
# Type: functional, cell-based
# condition-notes: MDA-MB-468, 72 h
readout-type: IC50

smiles_entry=O=C(Nc1ccc(-c2nc(N3CC4CCC(C3)O4)c3cnn(CC(F)(F)F)c3n2)cc1)Nc1ccc(N2CCNCC2)cc1 result="1 nM"
smiles_entry=CCn1ncc2c(N3CC4CCC(C3)O4)nc(-c3ccc(NC(=O)Nc4ccc(CCO)cc4)cc3)nc21 result="< 0.7 nM"
smiles_entry=CCn1ncc2c(N3CC4CCC(C3)O4)nc(-c3ccc(NC(=O)Nc4ccc(CO)cc4)cc3)nc21 result="< 0.7 nM"
smiles_entry=CCn1ncc2c(N3CC4CCC(C3)O4)nc(-c3ccc(NC(=O)Nc4ccc(N5CCOCC5)nc4)cc3)nc21 result="8 nM"
smiles_entry=CCn1ncc2c(N3CC4CCC(C3)O4)nc(-c3ccc(NC(=O)Nc4ccc(N5CCN(C)CC5)cc4)cc3)nc21 result="< 0.7 nM"
smiles_entry=CCn1ncc2c(N3CC4CCC(C3)O4)nc(-c3ccc(NC(=O)Nc4ccc(CN)cc4)cc3)nc21 result="< 0.8 nM"

----------
# assay-name: Antiproliferative activity against PTEN deficient human MDA468 cells after 3 days by MTS assay
# Format: functional, cell-based
# condition-notes: MDA-MB-468, 72 h
readout-type: IC50 (nM)

smiles_entry=CCn1ncc2c(N3CC4CCC(C3)O4)nc(-c3ccc(NC(=O)Nc4ccc(N5CCOCC5)cc4)cc3)nc21 prefix_operator=< quantitative_readout=0.7
smiles_entry=CCn1ncc2c(N3CC4CCC(C3)O4)nc(-c3ccc(NC(=O)NCCN(C)C)cc3)nc21 prefix_operator== quantitative_readout=1250
smiles_entry=CCn1ncc2c(N3CC4CCC(C3)O4)nc(-c3ccc(NC(=O)Nc4ccc(CN(C)C)cc4)cc3)nc21 prefix_operator== quantitative_readout=30
smiles_entry=CCn1ncc2c(N3CC4CCC(C3)O4)nc(-c3ccc(NC(=O)Nc4ccc(NCCN(C)C)cc4)cc3)nc21 prefix_operator== quantitative_readout=7
smiles_entry=CN1CCN(c2ccc(NC(=O)Nc3ccc(-c4nc(N5CC6CCC(C5)O6)c5cnn(CC(F)(F)F)c5n4)cc3)cc2)CC1 prefix_operator== quantitative_readout=1.5
smiles_entry=CCn1ncc2c(N3CC4CCC(C3)O4)nc(-c3ccc(NC(=O)Nc4ccc(N(C)C)nc4)cc3)nc21 prefix_operator== quantitative_readout=80
smiles_entry=CCn1ncc2c(N3CC4CCC(C3)O4)nc(-c3ccc(NC(=O)Nc4ccccc4)cc3)nc21 prefix_operator== quantitative_readout=12
smiles_entry=CCn1ncc2c(N3CC4CCC(C3)O4)nc(-c3ccc(NC(=O)Nc4ccc(C(=O)NN(C)C)cc4)cc3)nc21 prefix_operator=< quantitative_readout=0.7

----------
# assay-name: AUC in nude mouse at 5 mg/kg, iv
# Type: ADME, organism-based
# Set-up: dose 5 mg/kg, route intravenous
# condition-notes: plasma
readout-type: AUC (ng·h/mL)

smiles_entry=CN1CCN(c2ccc(NC(=O)Nc3ccc(-c4nc(N5CC6CCC(C5)O6)c5cnn(CC(F)(F)F)c5n4)cc3)cc2)CC1 result_units=ng·h/mL quantitative_readout=12500

----------
# assay-name: Metabolic stability in human microsomes assessed as half life
# Assay type: ADME, Microsome
Use 10 min as the dividing line for half-life, with the line itself on the T side and lower values as F.

smiles_entry=CCn1ncc2c(N3CC4CCC(C3)O4)nc(-c3ccc(NC(=O)Nc4ccccc4)cc3)nc21 class_name=F
smiles_entry=CCn1ncc2c(N3CC4CCC(C3)O4)nc(-c3ccc(NC(=O)Nc4ccc(N5CCOCC5)cc4)cc3)nc21 class_name=F
smiles_entry=CN1CCN(c2ccc(NC(=O)Nc3ccc(-c4nc(N5CC6CCC(C5)O6)c5cnn(CC(F)(F)F)c5n4)cc3)cc2)CC1 class_name=T
smiles_entry=CCn1ncc2c(N3CC4CCC(C3)O4)nc(-c3ccc(NC(=O)Nc4ccc(CO)cc4)cc3)nc21 class_name=T
smiles_entry=CCn1ncc2c(N3CC4CCC(C3)O4)nc(-c3ccc(NC(=O)Nc4ccc(NCCN(C)C)cc4)cc3)nc21 class_name=T
smiles_entry=CCn1ncc2c(N3CC4CCC(C3)O4)nc(-c3ccc(NC(=O)Nc4ccc(C(=O)NN(C)C)cc4)cc3)nc21 class_name=T
smiles_entry=CCn1ncc2c(N3CC4CCC(C3)O4)nc(-c3ccc(NC(=O)Nc4ccc(CN(C)C)cc4)cc3)nc21 class_name=T
smiles_entry=CCn1ncc2c(N3CC4CCC(C3)O4)nc(-c3ccc(NC(=O)Nc4ccc(N5CCCC5)cc4)cc3)nc21 class_name=F

----------
# assayed-target: Serine/threonine-protein kinase mTOR (Homo sapiens, UniProt P42345)
# assay-name: Inhibition of human FLAG-tagged mTOR expressed in HEK293 cells after 2 hrs by DELFIA
Each record here notes measured IC50.
readout-type: IC50 (nM)

smiles_entry=CCn1ncc2c(N3CC4CCC(C3)O4)nc(-c3ccc(NC(=O)Nc4cccnc4)cc3)nc21 result_units=nM quantitative_readout=0.1
smiles_entry=CCn1ncc2c(N3CC4CCC(C3)O4)nc(-c3ccc(NC(=O)NCCN(C)C)cc3)nc21 result_units=nM quantitative_readout=51
smiles_entry=CCn1ncc2c(N3CC4CCC(C3)O4)nc(-c3ccc(NC(=O)Nc4ccc(CCO)cc4)cc3)nc21 result_units=nM quantitative_readout=0.1
smiles_entry=CCn1ncc2c(N3CC4CCC(C3)O4)nc(-c3ccc(NC(=O)Nc4ccc(CO)cc4)cc3)nc21 result_units=nM quantitative_readout=0.1

----------
# assay-name: Plasma concentration in nude mouse at 25 mg/kg, iv after 8 hrs
# Format: ADME, organism-based
# Set-up: dose 25 mg/kg, route intravenous
readout-type: concentration at 8 h (ng/mL)

smiles_entry=CN1CCN(c2ccc(NC(=O)Nc3ccc(-c4nc(N5CC6CCC(C5)O6)c5cnn(CC(F)(F)F)c5n4)cc3)cc2)CC1 readout_type="concentration at 8 h" result_units=ng/mL quantitative_readout=2500

----------
Reported Ratio IC50 is given for each of the following molecules.
# assay-name: Selectivity ratio, IC50 for PI3Kalpha to IC50 for human FLAG-tagged mTOR
readout-type: Ratio IC50

smiles_entry=O=C(Nc1ccc(-c2nc(N3CC4CCC(C3)O4)c3cnn(CC(F)(F)F)c3n2)cc1)Nc1ccc(N2CCNCC2)cc1 quantitative_readout=318
smiles_entry=CCn1ncc2c(N3CC4CCC(C3)O4)nc(-c3ccc(NC(=O)Nc4ccc(N5CCOCC5)nc4)cc3)nc21 quantitative_readout=7300
smiles_entry=CCn1ncc2c(N3CC4CCC(C3)O4)nc(-c3ccc(NC(=O)Nc4ccc(NC)nc4)cc3)nc21 quantitative_readout=302
smiles_entry=CCn1ncc2c(N3CC4CCC(C3)O4)nc(-c3ccc(NC(=O)Nc4ccc(CN5CCN(C)CC5)cc4)cc3)nc21 quantitative_readout=451
smiles_entry=CCn1ncc2c(N3CC4CCC(C3)O4)nc(-c3ccc(NC(=O)Nc4ccc(OCCN(C)C)cc4)cc3)nc21 quantitative_readout=172
smiles_entry=CCn1ncc2c(N3CC4CCC(C3)O4)nc(-c3ccc(NC(=O)Nc4ccc(N5CCOCC5)cc4)cc3)nc21 quantitative_readout=972
smiles_entry=CCn1ncc2c(N3CC4CCC(C3)O4)nc(-c3ccc(NC(=O)Nc4ccc(N5CCN(C)CC5)cc4)cc3)nc21 quantitative_readout=188
smiles_entry=CCn1ncc2c(N3CC4CCC(C3)O4)nc(-c3ccc(NC(=O)Nc4ccc(CCO)cc4)cc3)nc21 quantitative_readout=570

----------
# assayed-target: Phosphatidylinositol 4,5-bisphosphate 3-kinase catalytic subunit beta isoform (Homo sapiens, UniProt P42338)
# Sequence (P42338 whole entry, canonical isoform): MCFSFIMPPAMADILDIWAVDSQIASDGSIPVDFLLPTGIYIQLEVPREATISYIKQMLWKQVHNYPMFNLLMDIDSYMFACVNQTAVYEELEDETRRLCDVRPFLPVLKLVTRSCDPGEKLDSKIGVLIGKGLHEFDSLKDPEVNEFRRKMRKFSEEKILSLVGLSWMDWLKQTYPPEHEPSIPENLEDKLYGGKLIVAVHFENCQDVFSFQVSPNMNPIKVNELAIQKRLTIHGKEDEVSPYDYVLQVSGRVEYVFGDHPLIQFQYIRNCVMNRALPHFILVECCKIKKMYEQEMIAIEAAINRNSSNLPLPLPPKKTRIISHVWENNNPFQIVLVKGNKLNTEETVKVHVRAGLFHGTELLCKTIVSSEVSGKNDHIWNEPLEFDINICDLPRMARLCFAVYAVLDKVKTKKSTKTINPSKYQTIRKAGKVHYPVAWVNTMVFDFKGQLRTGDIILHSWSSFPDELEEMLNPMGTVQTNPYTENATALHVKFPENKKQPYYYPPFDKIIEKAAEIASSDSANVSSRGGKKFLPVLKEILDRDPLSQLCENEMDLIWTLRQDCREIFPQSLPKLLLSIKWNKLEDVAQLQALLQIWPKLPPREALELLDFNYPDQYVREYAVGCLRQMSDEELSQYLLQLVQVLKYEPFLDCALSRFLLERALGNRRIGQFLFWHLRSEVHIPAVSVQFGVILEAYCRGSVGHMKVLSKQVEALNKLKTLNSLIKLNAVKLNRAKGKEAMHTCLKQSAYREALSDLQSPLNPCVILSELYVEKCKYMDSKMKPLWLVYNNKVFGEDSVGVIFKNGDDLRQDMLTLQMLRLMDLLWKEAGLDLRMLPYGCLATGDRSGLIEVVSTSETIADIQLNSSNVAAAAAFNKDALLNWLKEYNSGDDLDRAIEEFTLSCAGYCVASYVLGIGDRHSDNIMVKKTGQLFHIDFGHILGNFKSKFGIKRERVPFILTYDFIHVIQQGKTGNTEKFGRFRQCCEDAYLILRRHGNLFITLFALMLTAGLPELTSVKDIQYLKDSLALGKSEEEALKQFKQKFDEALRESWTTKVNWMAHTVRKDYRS
# assay-name: Inhibition of PI3Kbeta
pIC50: −log10 of the molar value.
readout-type: pIC50

smiles_entry=CN1CCN(c2ccc(NC(=O)Nc3ccc(-c4nc(N5CC6CCC(C5)O6)c5cnn(CC(F)(F)F)c5n4)cc3)cc2)CC1 result="< 5.00"

----------
# assayed-target: Phosphatidylinositol 4,5-bisphosphate 3-kinase catalytic subunit alpha isoform (Homo sapiens)
# Sequence (P42336 whole entry, canonical isoform): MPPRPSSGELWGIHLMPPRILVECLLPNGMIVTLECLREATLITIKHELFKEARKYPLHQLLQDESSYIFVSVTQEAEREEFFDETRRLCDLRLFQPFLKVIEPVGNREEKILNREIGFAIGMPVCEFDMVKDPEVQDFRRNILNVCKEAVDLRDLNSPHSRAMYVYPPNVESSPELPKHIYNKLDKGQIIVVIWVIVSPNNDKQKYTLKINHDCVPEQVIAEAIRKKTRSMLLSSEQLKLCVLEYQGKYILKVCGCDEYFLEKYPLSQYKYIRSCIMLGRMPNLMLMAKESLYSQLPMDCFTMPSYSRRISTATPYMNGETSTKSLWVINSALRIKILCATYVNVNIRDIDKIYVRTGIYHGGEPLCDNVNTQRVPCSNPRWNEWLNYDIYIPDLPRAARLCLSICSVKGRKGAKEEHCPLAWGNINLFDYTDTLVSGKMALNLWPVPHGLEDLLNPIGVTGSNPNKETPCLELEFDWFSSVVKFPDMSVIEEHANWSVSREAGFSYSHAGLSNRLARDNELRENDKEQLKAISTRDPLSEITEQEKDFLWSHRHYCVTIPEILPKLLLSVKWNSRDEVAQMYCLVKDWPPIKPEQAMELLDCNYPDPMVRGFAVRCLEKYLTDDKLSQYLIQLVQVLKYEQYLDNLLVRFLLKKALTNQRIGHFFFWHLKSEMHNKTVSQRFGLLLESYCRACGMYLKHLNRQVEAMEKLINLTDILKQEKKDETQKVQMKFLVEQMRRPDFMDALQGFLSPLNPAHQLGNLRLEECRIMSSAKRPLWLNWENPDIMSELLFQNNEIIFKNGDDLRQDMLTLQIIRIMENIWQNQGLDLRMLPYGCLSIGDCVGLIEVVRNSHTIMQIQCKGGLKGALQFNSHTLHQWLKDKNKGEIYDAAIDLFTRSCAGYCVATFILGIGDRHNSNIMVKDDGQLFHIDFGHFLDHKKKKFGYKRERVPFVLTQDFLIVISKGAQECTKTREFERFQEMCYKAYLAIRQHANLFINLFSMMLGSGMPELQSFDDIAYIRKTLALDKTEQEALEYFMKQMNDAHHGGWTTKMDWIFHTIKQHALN
# assay-name: Binding affinity to PI3Kalpha by fluorescence polarization assay
readout-type: IC50 (nM)

smiles_entry=CCn1ncc2c(N3CC4CCC(C3)O4)nc(-c3ccc(NC(=O)Nc4ccc(N5CCN(C)CC5)cc4)cc3)nc21 quantitative_readout=51
smiles_entry=CCn1ncc2c(N3CC4CCC(C3)O4)nc(-c3ccc(NC(=O)Nc4ccc(CN)cc4)cc3)nc21 quantitative_readout=21
smiles_entry=CCn1ncc2c(N3CC4CCC(C3)O4)nc(-c3ccc(NC(=O)Nc4ccc(N(C)C)nc4)cc3)nc21 quantitative_readout=282
smiles_entry=CCn1ncc2c(N3CC4CCC(C3)O4)nc(-c3ccc(NC(=O)Nc4ccccc4)cc3)nc21 quantitative_readout=66
smiles_entry=CN1CCN(c2ccc(NC(=O)Nc3ccc(-c4nc(N5CC6CCC(C5)O6)c5cnn(CC(F)(F)F)c5n4)cc3)cc2)CC1 quantitative_readout=150
smiles_entry=CCn1ncc2c(N3CC4CCC(C3)O4)nc(-c3ccc(NC(=O)Nc4ccc(OCCN(C)C)cc4)cc3)nc21 quantitative_readout=136
smiles_entry=O=C(Nc1ccc(-c2nc(N3CC4CCC(C3)O4)c3cnn(CC(F)(F)F)c3n2)cc1)Nc1ccc(N2CCNCC2)cc1 quantitative_readout=76
smiles_entry=CCn1ncc2c(N3CC4CCC(C3)O4)nc(-c3ccc(NC(=O)Nc4ccc(CN(C)C)cc4)cc3)nc21 quantitative_readout=263
smiles_entry=CCn1ncc2c(N3CC4CCC(C3)O4)nc(-c3ccc(NC(=O)Nc4ccc(CN5CCN(C)CC5)cc4)cc3)nc21 quantitative_readout=320
smiles_entry=CCn1ncc2c(N3CC4CCC(C3)O4)nc(-c3ccc(NC(=O)Nc4cccnc4)cc3)nc21 quantitative_readout=148
smiles_entry=CCn1ncc2c(N3CC4CCC(C3)O4)nc(-c3ccc(NC(=O)Nc4ccc(NCCN(C)C)cc4)cc3)nc21 quantitative_readout=207
smiles_entry=CCn1ncc2c(N3CC4CCC(C3)O4)nc(-c3ccc(NC(=O)Nc4ccc(N(C)CCN(C)C)cc4)cc3)nc21 quantitative_readout=256
